# Tested on: ATP;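 further: ATP exposure 15 min at 22 °C before imaging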
# procedure-text: switch fluorescence ratio, 500 uM ATP over buffer (Cy3 cluster intensity, sum of 5 cycles each) (fold (ratio)); higher = stronger signal-on switching upon ATP binding; sequences stand for … in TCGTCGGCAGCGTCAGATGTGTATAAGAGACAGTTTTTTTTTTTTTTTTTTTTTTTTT…TC
# protocol-conditions: aptamer strand: ATP DNA aptamer (quencher-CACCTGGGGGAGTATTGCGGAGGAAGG + anchor), 100 nM annealed; ATP concentration: 500 uM
The following sequences are shown together with reported switch fluorescence ratio values.
// no unit, no text: just the number

-- ask Given AATGGCCGGC , report its switch fluorescence ratio on ATP.
-- reply 0.987

-- ask Given TTTCCGGGGA , report its switch fluorescence ratio on ATP.
-- reply 1.18

-- ask Given GGCAACGAAA , report its switch fluorescence ratio on ATP.
-- reply 1.04

-- ask Given ATAATTTGGT , report its switch fluorescence ratio on ATP.
-- reply 0.982

-- ask Given GATTTGCATC , report its switch fluorescence ratio on ATP.
-- reply 1.03

* * *

The following sequences are shown together with reported switch fluorescence ratio values.
# Tested on: ATP;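 further: ATP exposure 15 min at 22 °C before imaging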
# procedure-text: switch fluorescence ratio, 500 uM ATP over buffer (Cy3 cluster intensity, sum of 5 cycles each) (fold (ratio)); higher = stronger signal-on switching upon ATP binding; sequences stand for … in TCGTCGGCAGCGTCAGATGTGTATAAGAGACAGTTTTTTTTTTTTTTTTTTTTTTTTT…TC
# protocol-conditions: aptamer strand: ATP DNA aptamer (quencher-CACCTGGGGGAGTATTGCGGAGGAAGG + anchor), 100 nM annealed; ATP concentration: 500 uM
// no unit, no text: just the number

| sequence-chain | target-entity | switch fluorescence ratio |
| --- | --- | --- |
| AATGGGCCCT | ATP | 0.979 |

# ---- query sequence ----
-- ask Recall and state the measured switch fluorescence ratio for AAAATAGTGT .
-- reply 1.01

* * *

# System: ATP;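 further: ATP exposure 15 min at 22 °C before imaging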
# procedure-text: switch fluorescence ratio, 500 uM ATP over buffer (Cy3 cluster intensity, sum of 5 cycles each) (fold (ratio)); higher = stronger signal-on switching upon ATP binding; sequences stand for … in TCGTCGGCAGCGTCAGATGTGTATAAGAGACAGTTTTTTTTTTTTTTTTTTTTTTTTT…TC
# protocol-conditions: aptamer strand: ATP DNA aptamer (quencher-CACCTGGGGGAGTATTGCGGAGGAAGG + anchor), 100 nM annealed; ATP concentration: 500 uM
measurement-name: switch fluorescence ratio
// no unit, no text: just the number

Some solved entries appear below for comparison.
| sequence-chain | target-entity | switch fluorescence ratio |
| --- | --- | --- |
| CGGTAGCGGG | ATP | 1.01 |
| GCACCATCCA | ATP | 1.03 |
| ACTGGGTTTG | ATP | 1 |

# ---- query sequence ----
-- ask Recall and state the measured switch fluorescence ratio for ATTAGGAAAA .
-- reply 1.02

* * *

# System: ATP;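 further: ATP exposure 15 min at 22 °C before imaging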
# procedure-text: switch fluorescence ratio, 500 uM ATP over buffer (Cy3 cluster intensity, sum of 5 cycles each) (fold (ratio)); higher = stronger signal-on switching upon ATP binding; sequences stand for … in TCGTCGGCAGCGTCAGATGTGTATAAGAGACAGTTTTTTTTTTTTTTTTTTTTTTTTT…TC
# protocol-conditions: aptamer strand: ATP DNA aptamer (quencher-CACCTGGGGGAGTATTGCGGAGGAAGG + anchor), 100 nM annealed; ATP concentration: 500 uM
measurement-name: switch fluorescence ratio

| sequence-chain | measurement-name | result |
| --- | --- | --- |
| CTAATGTTGT | switch fluorescence ratio | 1.02 |

-- ask Recall and state the measured switch fluorescence ratio for GGTGGCAGGA .
-- reply 1.01

-- ask Recall and state the measured switch fluorescence ratio for TATTTGATTG .
-- reply 1

-- ask Recall and state the measured switch fluorescence ratio for GTGGGGGATG .
-- reply 1

-- ask Recall and state the measured switch fluorescence ratio for AGAGATGGGG .
-- reply 0.996

-- ask Recall and state the measured switch fluorescence ratio for TGGGAAATAT .
-- reply 0.973

-- ask Recall and state the measured switch fluorescence ratio for TGATTTTTAC .
-- reply 1.08

-- ask Recall and state the measured switch fluorescence ratio for TGCTTTTCTT .
-- reply 0.996

* * *

# System: ATP;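 further: ATP exposure 15 min at 22 °C before imaging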
# procedure-text: switch fluorescence ratio, 500 uM ATP over buffer (Cy3 cluster intensity, sum of 5 cycles each) (fold (ratio)); higher = stronger signal-on switching upon ATP binding; sequences stand for … in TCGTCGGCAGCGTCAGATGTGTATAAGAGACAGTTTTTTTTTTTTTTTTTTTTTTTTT…TC
# protocol-conditions: aptamer strand: ATP DNA aptamer (quencher-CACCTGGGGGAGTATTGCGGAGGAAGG + anchor), 100 nM annealed; ATP concentration: 500 uM
measurement-name: switch fluorescence ratio
// no unit, no text: just the number

Some solved entries appear below for comparison.
| sequence-chain | switch fluorescence ratio |
| --- | --- |
| ACTGTTAGGC | 1.01 |
| TGAGCTGGCT | 0.989 |
| ACTGGACGAT | 1.19 |
| CAAGTATCGG | 0.973 |
| AAGGCAGGTC | 1.02 |

-- ask Recall and state the measured switch fluorescence ratio for TTCCGACTCT .
-- reply 1.31

-- ask Recall and state the measured switch fluorescence ratio for TTTTCGATTT .
-- reply 1.42

-- ask Recall and state the measured switch fluorescence ratio for TTGGTTTGGC .
-- reply 1.01

-- ask Recall and state the measured switch fluorescence ratio for TTTGGGGGTC .
-- reply 1.1

-- ask Recall and state the measured switch fluorescence ratio for GGGGGCACTC .
-- reply 0.986

-- ask Recall and state the measured switch fluorescence ratio for GCCGGGTTGC .
-- reply 1.01

-- ask Recall and state the measured switch fluorescence ratio for GGCAGGGGCT .
-- reply 1

-- ask Recall and state the measured switch fluorescence ratio for CACATTGTCC .
-- reply 0.977

-- ask Recall and state the measured switch fluorescence ratio for ATGGGAACCT .
-- reply 1.12

-- ask Recall and state the measured switch fluorescence ratio for ATGGTTGGGT .
-- reply 0.994

-- ask Recall and state the measured switch fluorescence ratio for GGTGTGATTG .
-- reply 0.977

-- ask Recall and state the measured switch fluorescence ratio for CGGTCAAGGT .
-- reply 1

-- ask Recall and state the measured switch fluorescence ratio for CTGAGGGTAT .
-- reply 1.01

-- ask Recall and state the measured switch fluorescence ratio for GGGAAGAGTG .
-- reply 0.993

-- ask Recall and state the measured switch fluorescence ratio for TAGTCGGGGA .
-- reply 1.03

-- ask Recall and state the measured switch fluorescence ratio for GTTTTTCCTG .
-- reply 0.981

-- ask Recall and state the measured switch fluorescence ratio for TAAAAGATCG .
-- reply 1.03

* * *

# Tested on: ATP;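 further: ATP exposure 15 min at 22 °C before imaging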
# procedure-text: switch fluorescence ratio, 500 uM ATP over buffer (Cy3 cluster intensity, sum of 5 cycles each) (fold (ratio)); higher = stronger signal-on switching upon ATP binding; sequences stand for … in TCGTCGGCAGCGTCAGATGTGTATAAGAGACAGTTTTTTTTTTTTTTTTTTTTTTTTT…TC
# protocol-conditions: aptamer strand: ATP DNA aptamer (quencher-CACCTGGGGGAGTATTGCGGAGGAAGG + anchor), 100 nM annealed; ATP concentration: 500 uM
The following sequences are shown together with reported switch fluorescence ratio values.
// no unit, no text: just the number

| sequence-chain | switch fluorescence ratio |
| --- | --- |
| TGATGGGACT | 1.01 |

-- ask Recall and state the measured switch fluorescence ratio for TTTTTGACAC .
-- reply 1.26

-- ask Recall and state the measured switch fluorescence ratio for AAACGTACTT .
-- reply 1.58

-- ask Recall and state the measured switch fluorescence ratio for GCGACCGTGT .
-- reply 0.991

-- ask Recall and state the measured switch fluorescence ratio for GAGCGAGGGG .
-- reply 0.984

-- ask Recall and state the measured switch fluorescence ratio for GGCATCGTAG .
-- reply 0.998

-- ask Recall and state the measured switch fluorescence ratio for ATTTGCAGCA .
-- reply 1.02

-- ask Recall and state the measured switch fluorescence ratio for CTCATAACAG .
-- reply 0.996

-- ask Recall and state the measured switch fluorescence ratio for GAGTTTTTGG .
-- reply 0.973

-- ask Recall and state the measured switch fluorescence ratio for GATAGTGAAG .
-- reply 0.993

-- ask Recall and state the measured switch fluorescence ratio for ATACCCTAGC .
-- reply 1.09

-- ask Recall and state the measured switch fluorescence ratio for TTGAGGGGTG .
-- reply 0.996

-- ask Recall and state the measured switch fluorescence ratio for GATAAGTCAG .
-- reply 0.989

-- ask Recall and state the measured switch fluorescence ratio for AATATTTGG .
-- reply 1.01

* * *

# Test system: ATP;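 further: ATP exposure 15 min at 22 °C before imaging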
# procedure-text: switch fluorescence ratio, 500 uM ATP over buffer (Cy3 cluster intensity, sum of 5 cycles each) (fold (ratio)); higher = stronger signal-on switching upon ATP binding; sequences stand for … in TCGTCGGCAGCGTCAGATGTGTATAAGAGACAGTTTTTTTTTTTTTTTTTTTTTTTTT…TC
# protocol-conditions: aptamer strand: ATP DNA aptamer (quencher-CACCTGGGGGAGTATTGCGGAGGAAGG + anchor), 100 nM annealed; ATP concentration: 500 uM
measurement-name: switch fluorescence ratio
// no unit, no text: just the number

| sequence-chain | target-entity | numeric-result |
| --- | --- | --- |
| TTTGTTTCGA | ATP | 1.05 |
| TCGGGTTTTC | ATP | 1 |
| GACGGGATTG | ATP | 1.01 |
| GAGGTTGGAT | ATP | 0.982 |
| ACGAAGTTAG | ATP | 0.998 |

-- ask Recall and state the measured switch fluorescence ratio for TCTTATGCTC .
-- reply 0.98

-- ask Recall and state the measured switch fluorescence ratio for TTTCATATGC .
-- reply 0.995

-- ask Recall and state the measured switch fluorescence ratio for ATACGCTTTT .
-- reply 1.14

-- ask Recall and state the measured switch fluorescence ratio for GAGAGATGGG .
-- reply 0.988

-- ask Recall and state the measured switch fluorescence ratio for CGACAATGCC .
-- reply 1.29
